Test system: Varicella zoster virus (VZV)
Experiment: VZV assay in MRC5 cells (similar to HCMV plaque reduction, without agarose overlay)
Type: cell-based
Conditions: Human alphaherpesvirus 3, MRC5, read-out: IC50 VZV
experimental readout: IC50

Need IC50, item C#Cc1cn([C@H]2C[C@H](O)[C@@H](CO)O2)c(=O)[nH]c1=O [H/H, 2'-Deoxy-5-ethynyluridine]
0.06 to 0.3 µM

The measured values listed here are drawn from patent US4863906A.
